Reference for the values: the C3SDB collision cross section collection

# collision cross section (N2) values compiled below
# Test Parameters: [M+H]+; instrument: TW; calibrated with polyalanine and drug standards
Hi! Could you send only the number? It should be in Å², unit omitted.

Use the examples below as a reference point.
O=c1c(-c2ccc(O)cc2)coc2c([C@@H]3O[C@H](CO)[C@@H](O)[C@H](O)[C@H]3O)c(O)ccc12 = 196.4
Cc1nc2ccccn2c(=O)c1CCN1CCC(C(=O)c2ccc(F)cc2)CC1 = 196.8

Kindly note the recorded collision cross section (N2) for COc1ccc(Cl)cc1C(=O)NCCc1ccc(S(=O)(=O)NC(=O)NC2CCCCC2)cc1 [GLYBURIDE] , which is 205.9

---

# collision cross section (N2) values compiled below
# Test Parameters: [M+Na]+; instrument: DT; stepped-field
Hi! Could you send only the number? It should be in Å², unit omitted.

Use the examples below as a reference point.
CC(=O)N[C@@H](C)C(=O)O = 138.07
Nc1ccn([C@H]2C[C@H](O)[C@@H](CO)O2)c(=O)n1 = 158.41
CCCCCCCCCCCCCCCCCC(=O)O = 191.83

Kindly note the recorded collision cross section (N2) for OCC1(O)OC[C@@H](O)[C@@H](O)[C@@H]1O (some centres not stated) , which is 141.93

Kindly note the recorded collision cross section (N2) for OC[C@H]1OC(O)[C@H](O)[C@@H](O)[C@@H]1O (some centres not stated) , which is 147.72

Kindly note the recorded collision cross section (N2) for O=C(CO)[C@H](O)[C@H](O)COP(=O)(O)O [D-Ribulose 5-Phosphate] , which is 153.25

Kindly note the recorded collision cross section (N2) for O=C[C@H](O)[C@@H](O)[C@H](O)COP(=O)(O)O [D-Xylose 5-phosphate] , which is 151.4

---

# Test Parameters: [M+H]+; instrument: TW; calibrated with polyalanine and drug standards
Measure Name: collision cross section (N2) (Å²)
Hi! Could you send only the number? It should be in Å², unit omitted.

Use the examples below as a reference point.
CCCC(C)(COC(N)=O)COC(=O)NC(C)C (stereo unspecified) [CARISOPRODOL] = 149.1
CC(NC(C)(C)C)C(=O)c1cccc(Cl)c1 (stereo unspecified) [BUPROPION] = 157.5
C[C@H]1COC2=C1C(=O)C(=O)c1c2ccc2c1CCCC2(C)C [CRYPTOTANSHINONE] = 168
CC12CCCC(O)(C1)C1CC(C)(C)C1CC2 (stereo not drawn) [beta-CARYOPHYLLENE ALCOHOL] = 146.1
O=c1c(-c2ccccc2)coc2cc(O)cc(O)c12 [5,7-DIHYDROXYISOFLAVONE] = 152.3

Kindly note the recorded collision cross section (N2) for Cn1c(=O)c2c(ncn2C)n(C)c1=O [CAFFEINE] , which is 136.9

Kindly note the recorded collision cross section (N2) for CC(=O)c1cc2ccccc2oc1=O [3-ACETYLCOUMARIN] , which is 131.6

---

# Test Parameters: [M-H]-; instrument: DT; single field, calibrated with ESI Low Concentration Tuning Mix (Agilent)
# collision cross section (N2) values compiled below
Hi! Could you send only the number? It should be in Å², unit omitted.

Use the examples below as a reference point.
N[C@@H](Cc1ccccc1)C(=O)O [PHENYLALANINE] = 139.4
O=C(O)[C@H]1OC(O)[C@H](O)[C@@H](O)[C@@H]1O (stereo partly specified) [GLUCURONATE] = 131.7
CC(CCC(=O)O)C(=O)O (stereo unspecified) [2-METHYLGLUTARATE] = 126
Nc1ccn(C2O[C@H](CO)[C@H]3OP(=O)(O)O[C@@H]23)c(=O)n1 (stereo partly specified) [CYTIDINE 2',3'-CYCLIC PHOSPHATE] = 164.5
Nc1ncnc2c1ncn2[C@@H]1O[C@H](CSCC[C@H](N)C(=O)O)[C@@H](O)[C@H]1O [S-ADENOSYLHOMOCYSTEINE] = 186.4

--- query ---
Kindly note the recorded collision cross section (N2) for O=C(O)CCCCCC(=O)O [6-CARBOXYHEXANOATE] , which is 130.9
